# Measured Target: 5-hydroxytryptamine receptor 2C (Homo sapiens, UniProt P28335)
# Sequence (P28335 whole entry): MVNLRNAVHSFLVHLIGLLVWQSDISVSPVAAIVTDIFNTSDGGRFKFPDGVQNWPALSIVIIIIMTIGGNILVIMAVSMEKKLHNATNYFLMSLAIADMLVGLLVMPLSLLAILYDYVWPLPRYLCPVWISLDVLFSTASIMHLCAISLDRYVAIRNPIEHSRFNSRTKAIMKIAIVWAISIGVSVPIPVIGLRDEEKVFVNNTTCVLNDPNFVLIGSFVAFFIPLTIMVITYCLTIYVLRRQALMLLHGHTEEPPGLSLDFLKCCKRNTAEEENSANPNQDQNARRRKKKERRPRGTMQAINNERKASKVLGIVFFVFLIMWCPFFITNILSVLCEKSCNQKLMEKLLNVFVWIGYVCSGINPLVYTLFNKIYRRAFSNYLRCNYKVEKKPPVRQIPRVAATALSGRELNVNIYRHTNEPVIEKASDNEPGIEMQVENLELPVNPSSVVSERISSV
Readout: Ki (nM)
All answers are understood in nM, so give the number only.

For orientation, consider the following solved cases.
Cc1ncccc1Oc1ccc(NC(=O)N2CCc3cc(Br)ccc32)cn1    3.2
CN1C(=N)N(C)/C(=C/c2c[nH]c3cc(Cl)c(Cl)cc23)C1=O    46
Cc1cc2c(cc1I)N(C(=O)Nc1cccnc1)CC2    3.2
CN1C(=N)N(C)/C(=C/c2c[nH]c3cc(Cl)ccc23)C1=O    166

Output Ki of `O=C(Nc1cccnc1)N1CCc2cc(I)c(Cl)cc21`
3.2

Quickly give me recorded Ki for `CN1C(=N)N(C)/C(=C/c2c[nH]c3cc(Br)ccc23)C1=O`
2200
